assayed.target: human Glucose-dependent Insulinotropic Polypeptide Receptor (hGIPR) (Homo sapiens, UniProt P48546)
Sequence (P48546 22-466): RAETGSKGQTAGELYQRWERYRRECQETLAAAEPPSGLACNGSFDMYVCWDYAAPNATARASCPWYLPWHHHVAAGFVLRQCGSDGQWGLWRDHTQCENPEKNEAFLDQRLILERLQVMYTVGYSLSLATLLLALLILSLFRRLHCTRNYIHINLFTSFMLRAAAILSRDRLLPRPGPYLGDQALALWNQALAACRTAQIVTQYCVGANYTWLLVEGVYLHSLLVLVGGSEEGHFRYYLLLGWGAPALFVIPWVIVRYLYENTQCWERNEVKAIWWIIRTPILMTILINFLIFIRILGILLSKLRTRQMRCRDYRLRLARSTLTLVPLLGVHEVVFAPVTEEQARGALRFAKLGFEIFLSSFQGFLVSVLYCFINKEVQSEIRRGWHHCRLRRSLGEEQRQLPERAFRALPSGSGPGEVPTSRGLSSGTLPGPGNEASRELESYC
protocol.text: Functional in vitro GIPR antagonist potency assay (intracellular cAMP, HTRF, hGIP stimulation at EC80)
Format: cell-based
protocol.conditions: geometric mean; CHO-K1 cells stably expressing human GIPR, cAMP after hGIP stimulation at EC80
observable: IC50 (nM)
// return numeric value only (unit: nM, not printed)

INSERT INTO assay_data (compound, numeric_readout) VALUES
  ('Cc1cc(-n2ccc(NC(=O)[C@H]3CCCN3C(=O)NCc3ccc(C(F)(F)F)c(F)c3)n2)ccc1C(=O)O', 150),
  ('CC(C)c1ccc(NC(=O)N2CCC[C@@H]2C(=O)Nc2ccn(-c3ccc(C(=O)O)cn3)n2)cc1', 50),
  ('Cc1cc(-n2ccc(NC(=O)[C@H]3CCCN3C(=O)COc3ccc(C(F)(F)F)cc3)n2)ccc1C(=O)O', 36);

Proceed to the following item.
Request: I have this compound here, `O=C(O)c1ccc(-n2ccc(NC(=O)[C@H]3CCCN3C(=O)Nc3ccc(C(F)(F)F)cc3)n2)nc1` , and I need its recorded IC50.
Response: 74

====

assayed.target: UniProt:P48546
protocol.text: Functional in vitro GIPR antagonist potency assay (intracellular cAMP, HTRF, hGIP stimulation at EC80)
Type: cell-based
observable: IC50 (µM)
// return numeric value only (unit: µM, not printed)

INSERT INTO assay_data (compound, unit_text, numeric_readout) VALUES
  ('Cc1cc(-n2ccc(NC(=O)[C@H]3CCCN3C(=O)Nc3ccc(C(F)(F)F)c(F)c3)n2)ccc1C(=O)O', 'µM', 0.019),
  ('CC(C)c1ccc(NC(=O)N2CCC[C@@H]2C(=O)Nc2ccn(-c3ccc(C(=O)O)cn3)n2)cc1F', 'µM', 0.02);

Proceed to the following item.
Request: I have this molecule here, `Cc1cc(-n2ccc(NC(=O)[C@H]3CCCN3C(=O)Nc3ccc(OC(F)(F)F)cc3)n2)ccc1C(=O)O` , and I need its recorded IC50.
Response: 0.011

====

assayed.target: human Glucose-dependent Insulinotropic Polypeptide Receptor (hGIPR) (Homo sapiens)
protocol.text: Functional in vitro GIPR antagonist potency assay (intracellular cAMP, HTRF, hGIP stimulation at EC80)
Format: cell-based
protocol.conditions: geometric mean; CHO-K1 cells stably expressing human GIPR, cAMP after hGIP stimulation at EC80
observable: IC50 (nM)
// return numeric value only (unit: nM, not printed)

Use these answered entries as a reference point.
INSERT INTO results (compound, observable, unit_text, numeric_readout) VALUES
  ('Cc1cc(-n2ccc(NC(=O)[C@H]3CCCN3C(=O)CNc3ccc(C(F)(F)F)cc3)n2)ccc1C(=O)O [Example 19]', 'IC50', 'nM', 78),
  ('Cc1cc(-n2ccc(NC(=O)[C@H]3CCCN3C(=O)Nc3ccc(C(F)(F)F)c(C)c3)n2)ccc1C(=O)O [Example 38]', 'IC50', 'nM', 28),
  ('CC(C)c1ccc(NC(=O)N2CCC[C@@H]2C(=O)Nc2ccn(-c3ccc(CC(=O)O)cc3)n2)cc1 [Example 2]', 'IC50', 'nM', 25),
  ('Cc1cc(-n2ccc(NC(=O)[C@H]3CCCN3C(=O)COc3ccc(OC(F)(F)F)cc3)n2)ccc1C(=O)O [Example 63]', 'IC50', 'nM', 46),
  ('Cc1cc(-n2ccc(NC(=O)[C@H]3CCCN3C(=O)NCc3ccc(C(F)(F)F)cc3)n2)ccc1C(=O)O [Example 40]', 'IC50', 'nM', 150),
  ('CC(C)c1ccc(NC(=O)N2CCC[C@@H]2C(=O)Nc2ccn(-c3cccc(C(=O)O)c3)n2)cc1 [Example 20]', 'IC50', 'nM', 240),
  ('CC(C)c1ccc(NC(=O)N2CCC[C@@H]2C(=O)Nc2ccn(-c3ccc(C(=O)O)cc3)n2)cc1 [Example 22]', 'IC50', 'nM', 22),
  ('Cc1cc(NC(=O)N2CCC[C@@H]2C(=O)Nc2ccn(-c3ccc(C(=O)O)cc3)n2)ncc1C(C)C [Example 30]', 'IC50', 'nM', 250);

Request: I have this compound here, Cc1cc(-n2ccc(NC(=O)[C@H]3CCCN3C(=O)Nc3ccc(C(C)C)c(C)c3)n2)ccc1C(N)=O [Example 15] , and I need its recorded IC50.
Response: 41

Request: I have this compound here, CC(C)c1ccc(NC(=O)N2CCC[C@@H]2C(=O)Nc2ccn(-c3ccc(C(=O)O)c(F)c3)n2)cc1 [Example 32] , and I need its recorded IC50.
Response: 280

Request: I have this compound here, CC(C)c1ccc(NC(=O)N2CCC[C@@H]2C(=O)Nc2ccn(-c3ccc(C(=O)O)cc3F)n2)cc1F [Example 34] , and I need its recorded IC50.
Response: 15

Request: I have this compound here, Cc1c(C(=O)O)ccc(-n2ccc(NC(=O)[C@H]3CCCN3C(=O)Nc3ccc(OC(F)(F)F)cc3)n2)c1F [Example 62] , and I need its recorded IC50.
Response: 7.6

Request: I have this compound here, Cc1cc(NC(=O)N2CCC[C@@H]2C(=O)Nc2ccn(-c3ccc(C(=O)O)cn3)n2)ccc1C(C)C [Example 28] , and I need its recorded IC50.
Response: 29

Request: I have this compound here, CC(C)c1ccc(NC(=O)N2CCC[C@@H]2C(=O)Nc2ccn(-c3ccc(C(N)=O)cc3)n2)cc1F [Example 57] , and I need its recorded IC50.
Response: 120

Request: I have this compound here, CC(C)c1ccc(NC(=O)N2CCC[C@@H]2C(=O)Nc2ccn(-c3ccc(C(N)=O)cc3F)n2)cc1 [Example 36] , and I need its recorded IC50.
Response: 42

Hey, just so you know, these numbers are from patent US20250326741A1.
